src = the EternaBench riboswitch data

- System: MS2 coat protein
- assay-notes: apparent Kd, MS2 coat protein; higher = weaker binding; RNA-MaP array; FMN 200 µM where present
- conditions-used: ligand present: flavin mononucleotide; designed as: OFF switch for flavin mononucleotide
Recorded apparent Kd by entry
value-kind: apparent Kd (nM)

- input-sequence: "GGUCGUCAAGUCAGGAUAUCGUUUAGUCGGUGUAACGAGAAGGGACAUGAGGAUCACCCAUGUCGUCUCAUCAG"
  observed-measurement: 25.8
- input-sequence: "UAUAUAUAGUAAGGAUAUGUAUUUAUUUUAGAAACAGAAGGUACUGACAUGAGGAUCACCCAUGUUUUAGUGUGGGCAUGUAGA"
  observed-measurement: 152
- input-sequence: "UCAUGAUAUGUAGGAUAUCACUUUAAUUGAUUAAUAUAUGAAUAUAGAAUUUGAGAAGGACAUUUACAUGAGGAUCACCCAUGU"
  observed-measurement: 9.67
- input-sequence: "UCGGGUUAUACAGGAUAUGUUUAGGUUUAUUCAUGCAGUUAUUAAUUUAUGACAGAAGGGUAUACAUGAGGAUCACCCAUGUCA"
  observed-measurement: 387
- input-sequence: "UAUUAACACGAAGGAUAUGCUUACAUGAGGAUCACCCAUGUAUGUAUAUUGAUCCAGAGUUUUGAGCAGAAGGUCGUGAGUAAA"
  observed-measurement: 153
- input-sequence: "GCAUCCAAAGUGAGGAUAUACCUCUGGAUACAGAGGUAGAAGGCACAUGAGGAUCACCCAUGUUCCUAGGAUGC"
  observed-measurement: 74.2
- input-sequence: "GUGUACAGAGGAUAUACUGGAGCAUGGAAACAUGCAACUUCACAUGAGGAUCACCCAUGUAGAAGGCUGUACAC"
  observed-measurement: 68.4
- input-sequence: "AGUAGUUCAGGAUAUGAUGUAUGUUACAUGAGGAUCACCCAUGUAGGUCCUGGAAAUGUAUCAGAAGGGAAUAUCU"
  observed-measurement: 111
